- Test system: K-562 leukemia
- EXPERIMENTAL PROTOCOL: NCI tumour cell line growth inhibition, 48 h; in the data active = GI50 below about 0.43 µM; inactive = the rest
I would appreciate it if you answered using one of these outcomes: active, inactive

Use these answered entries as a reference point.
compound=OCc1ccc(N2CCc3cc(F)ccc3C2)cc1Cl category=active
compound="CC[C@]1(O)CC2CN(CCc3c([nH]c4ccccc34)[C@@](C(=O)OC)(c3cc4c(cc3OC)N(C=O)[C@H]3[C@@](O)(C(=O)OC)[C@H](OC(C)=O)[C@]5(CC)C=CCN6CC[C@]43[C@@H]65)C2)C1 (some centres undefined)" category=active

I'd appreciate the recorded outcome for CCN(CC)CCC(CNc1ccnc2cc(Cl)ccc12)c1ccccc1 (centres undefined) from this test. inactive

I'd appreciate the recorded outcome for "COc1ccc(-c2[nH]nc(N)c2-c2cc(OC)c3c(c2)OCO3)cc1" from this test. inactive

I'd appreciate the recorded outcome for "O=C1c2cccnc2C(=O)c2c1c(C(=O)NCCn1ccnc1)c1ccccn21" from this test. inactive
